- TEST DETAILS: Selectivity index, ratio of CC50 for cytotoxicity against human THP-1 cells assessed as reduction in cell viability to MIC for antibacterial activity against Staphylococcus aureus assessed as reduction in bacterial growth
- Assay type: toxicity, cell-based
- ASSAY CONTEXT: read-out: Selectivity Index
MEASURE NAME: selectivity ratio

Which measured selectivity ratio value corresponds to O=C(O)c1cc2cc(OCc3ccc(C4CCCCC4)c(C(F)(F)F)c3)ccc2[nH]1 ?
> 12

* * *

- Test system: Enterococcus faecalis
- TEST DETAILS: Antibacterial activity against vancomycin-resistant Enterococcus faecalis ATCC 51575 assessed as reduction in bacterial growth incubated for 18 to 20 hrs by broth microdilution assay
- Type: functional
- ASSAY CONTEXT: time 18-20 hrs
Kindly supply the reported MIC values for the records listed here.
One number for each entry, in µM.

As a guide, the following entries are already answered.
| MOLECULE | ENDPOINT VALUE |
| --- | --- |
| O=C(O)c1cc2cc(OCc3ccc(C4CCCCC4)c(C(F)(F)F)c3)ccc2[nH]1 | 10 |
| O=C(O)C[C@H]1CCc2c1[nH]c1ccc(OCc3ccc(C4CCCC4)c(C(F)(F)F)c3)cc21 | 10 |

For each listed entry, give its MIC.
1. O=C(O)c1ccc(OCc2ccc(C3CCCC3)c(C(F)(F)F)c2)cn1
2. O=C(O)CC1CCCc2c1[nH]c1ccc(OCc3ccc(C4CCCC4)c(C(F)(F)F)c3)cc21 (stereo unspecified)
3. O=C(O)c1cn(C2CC2)c2cc(N3CCNCC3)c(F)cc2c1=O
4. CC(=O)NC[C@H]1CN(c2ccc(N3CCOCC3)c(F)c2)C(=O)O1

1. 20
2. 10
3. 2.5
4. 5
